Recorded measurements of pIC50, one per entry
target: CCR1 receptor (Homo sapiens, UniProt P32246); test: In vitro Ca2+-flux assay on human monocytes (THP-1), MIP-1α stimulated; details: block of MIP-1α induced Ca2+-flux in THP-1 cells; 2,5-dimethylpiperazine derivatives tested as racemic mixtures
Sequence (P32246 whole entry): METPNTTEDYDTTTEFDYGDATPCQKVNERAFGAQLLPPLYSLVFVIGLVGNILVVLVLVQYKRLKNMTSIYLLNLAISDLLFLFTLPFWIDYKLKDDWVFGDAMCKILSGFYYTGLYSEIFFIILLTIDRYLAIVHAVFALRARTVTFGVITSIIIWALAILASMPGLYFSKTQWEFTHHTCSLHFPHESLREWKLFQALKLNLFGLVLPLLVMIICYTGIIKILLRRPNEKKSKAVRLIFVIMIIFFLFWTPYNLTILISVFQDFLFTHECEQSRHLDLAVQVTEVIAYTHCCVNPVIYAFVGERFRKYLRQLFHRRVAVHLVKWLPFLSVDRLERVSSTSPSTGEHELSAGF
pIC50: −log10 of the molar value.

Solved entries:
- O=C(c1cc2ccccc2o1)N1CCN(Cc2ccc(Cl)cc2)CC1 [Compound C, reference compound]: < 6.00
- COc1cccc2cc(C(=O)N3C[C@@H](C)N(Cc4ccc(F)cc4)C[C@H]3C)oc12 (racemic) [Compound A, reference compound]: < 6.00

Now examine the next entry.
INPUT: State the recorded pIC50 for this entry: COc1cccc2cc(C(=O)N3C[C@@H](C)N(Cc4ccc(F)cc4)C[C@@H]3C)oc12 (racemic) [Compound D, reference compound]
OUTPUT: < 6.00
